biological target: ULK1 kinase (Homo sapiens, UniProt O75385, E37A/K38A); construct: (residues 1-283; ID NO: 1); assay: Biochemical assay for ULK1 (coupled pyruvate kinase/lactate dehydrogenase assay); details: 1 mM ATP, 0.1 nM ULK1; read-out: ULK1 (inhibition of biochemical activity), IC50
The entries below come with measured IC50 values attached.

The examples below pair each entry with its known result.
compound=CC/C(Nc1cnn(C2CN(C)C2)c1)=C1/C(=O)Nc2ccc(C(=O)NCCOC)cc21 reported_endpoint=IC50 result="10 to 100 nM"
compound=CC/C(Nc1cnn(C(C)C)c1)=C1/C(=O)Nc2ccc(C(=O)NC[C@@H](C)OC)cc21 reported_endpoint=IC50 result="10 to 100 nM"
compound="CC/C(Nc1ccc(N2CC3CC2CN3C)cc1)=C1/C(=O)Nc2ccc(C(=O)NC[C@H]3CCCO3)cc21 (stereo partly shown)" reported_endpoint=IC50 result="≤ 10 nM"

Prompt: Look up and state reported IC50 for CC/C(Nc1cnn(C)c1)=C1/C(=O)Nc2ccc(C(=O)NCC3(F)CC3)cc21
Response: ≤ 10 nM

###

target: ULK1 kinase (Homo sapiens, UniProt O75385, E37A/K38A); construct: (residues 1-283; ID NO: 1); assay: Biochemical assay for ULK1 (coupled pyruvate kinase/lactate dehydrogenase assay); conditions: 1 mM ATP, 0.1 nM ULK1; read-out: ULK1 (inhibition of biochemical activity), IC50
The entries below come with measured IC50 values attached.

The examples below pair each entry with its known result.
sample_smiles=CCNC(=O)c1ccc2c(c1)/C(=C(\CC)Nc1cnn(C3CCN(C(C)C)CC3)c1)C(=O)N2 result="100 to 500 nM"
sample_smiles=COCCNC(=O)c1ccc2c(c1)/C(=C(\C)Nc1cnn(C3CCN(C(C)C)CC3)c1)C(=O)N2 result="10 to 100 nM"
sample_smiles=CC/C(Nc1cncc(C(C)C)c1)=C1/C(=O)Nc2ccc(C(=O)NCC(F)(F)F)cc21 result="> 500 nM"
sample_smiles=CC/C(Nc1cnn(C2CCN(C3CCC3)CC2)c1)=C1/C(=O)Nc2ccc(C(=O)NCC(C)C)cc21 result="≤ 10 nM"
sample_smiles=CC/C(Nc1cnn(C(C)C)c1)=C1/C(=O)Nc2ccc(C(=O)N3CC[C@@H](C(F)(F)F)C3)cc21 result="100 to 500 nM"
sample_smiles=CC/C(Nc1cnn(C(C)C)c1)=C1/C(=O)Nc2cc(Cl)c(C(=O)NCC(F)(F)F)cc21 result="100 to 500 nM"

Kindly review the next compound as well.
Prompt: Look up and state reported IC50 for CC/C(Nc1cnn(C)c1)=C1/C(=O)Nc2ccc(C(=O)NC[C@H]3CCCO3)cc21
Response: 10 to 100 nM

###

molecular target: ULK1 kinase (Homo sapiens, UniProt O75385, E37A/K38A); construct: (residues 1-283; ID NO: 1); purchased Beryllium; assay: Biochemical assay for ULK1 (coupled pyruvate kinase/lactate dehydrogenase assay); conditions: 1 mM ATP, 0.1 nM ULK1; read-out: ULK1 (inhibition of biochemical activity), IC50
The entries below come with measured IC50 values attached.

The examples below pair each entry with its known result.
compound="CC/C(Nc1cnn(C(C)C)c1)=C1/C(=O)Nc2ccc(C(=O)NC(C)(C)CC(F)(F)F)cc21 [Example 167]" result="0.1 to 0.5 µM"
compound="CC/C(Nc1ccc(N2CC3(CN(C)C3)C2)cc1)=C1/C(=O)Nc2ccc(C(=O)NCC(F)(F)F)cc21 [Example 62]" result="≤ 0.01 µM"
compound="CC/C(Nc1cnn(C(C)C)c1)=C1/C(=O)Nc2ccc(C(=O)N(C)CC(F)(F)F)cc21 [Example 125]" result="0.01 to 0.1 µM"
compound="CC/C(Nc1cnn(C2CCN(C(C)C)CC2)c1)=C1/C(=O)Nc2ccc(C(=O)N3CCCC3)cc21 [Example 81]" result="> 0.5 µM"
compound="CC/C(Nc1cnn(C2CCN(C(C)C)CC2)c1)=C1/C(=O)Nc2ccc(C(=O)NC[C@H]3CCCCO3)cc21 [Example 83]" result="≤ 0.01 µM"

Prompt: Look up and state reported IC50 for CC/C(Nc1ccc(N2CC3CC(C2)N3C)cc1)=C1/C(=O)Nc2ccc(C(=O)NCC(C)C)cc21 [Example 67]
Response: ≤ 0.01 µM

Prompt: Look up and state reported IC50 for CC/C(Nc1nc(C)co1)=C1/C(=O)Nc2ccc(C(=O)NCC(F)(F)F)cc21 [Example 143]
Response: 0.1 to 0.5 µM

Prompt: Look up and state reported IC50 for CC/C(Nc1cnn(C(C)C)c1)=C1/C(=O)Nc2ccc(C(=O)NC(C)C)cc21 [Example 132]
Response: 0.1 to 0.5 µM

Prompt: Look up and state reported IC50 for CC/C(Nc1cnn(C(C)C)c1)=C1/C(=O)Nc2ccc(C(=O)NCCOC)cc21 [Example 126]
Response: 0.01 to 0.1 µM

Prompt: Look up and state reported IC50 for CC/C(Nc1cnn(C(C)C)c1)=C1/C(=O)Nc2ccc(C(=O)NCCC(F)(F)F)cc21 [Example 166]
Response: ≤ 0.01 µM

Prompt: Look up and state reported IC50 for CC/C(Nc1cnn(C2CCNCC2)c1)=C1/C(=O)Nc2ccc(C(=O)NC[C@H]3CCCO3)cc21 [Example 52]
Response: ≤ 0.01 µM

Prompt: Look up and state reported IC50 for CC/C(Nc1cnn(C2CCOCC2)c1)=C1/C(=O)Nc2ccc(C(=O)NCC(F)(F)F)cc21 [Example 106]
Response: ≤ 0.01 µM

Prompt: Look up and state reported IC50 for CC/C(Nc1cnn(C(C)C)c1)=C1/C(=O)Nc2ccc(C(=O)N(C)C[C@H]3CCCO3)cc21 [Example 129]
Response: 0.01 to 0.1 µM

Prompt: Look up and state reported IC50 for CC/C(Nc1cnn(C(C)C)c1)=C1/C(=O)Nc2ccc(C(=O)NCC(C)(C)OC)cc21 [Example 148]
Response: 0.01 to 0.1 µM

###

The entries below come with measured pIC50 values attached.
target: ULK1 kinase (Homo sapiens, UniProt O75385, E37A/K38A); construct: (residues 1-283; ID NO: 1); test: Biochemical assay for ULK1 (coupled pyruvate kinase/lactate dehydrogenase assay); details: 1 mM ATP, 0.1 nM ULK1; read-out: ULK1 (inhibition of biochemical activity), IC50
pIC50: −log10 of the molar value.

sample_smiles=CC/C(Nc1cnn(C2CCN(C(C)C)CC2)c1)=C1/C(=O)Nc2ccc(C(=O)NCC3COC3)cc21 reported_endpoint=pIC50 result="7.00 to 8.00"
sample_smiles=CC/C(Nc1cnn(C(C)C)c1)=C1/C(=O)Nc2ccc(C(N)=O)cc21 reported_endpoint=pIC50 result="7.00 to 8.00"
sample_smiles=CC/C(Nc1cnn(C2CCC2)c1)=C1/C(=O)Nc2ccc(C(=O)NCC(F)(F)F)cc21 reported_endpoint=pIC50 result="≥ 8.00"

Kindly review the next compound as well.
Prompt: Look up and state reported pIC50 for CC/C(Nc1cnn(C2CNC2)c1)=C1/C(=O)Nc2ccc(C(=O)NC[C@H]3CCCO3)cc21
Response: ≥ 8.00

###

The entries below come with measured IC50 values attached.
test system: ULK kinase substrate ATG13 (pS318-ATG13) in MiaPaCa-2 cells; test: pATG13 levels of mutant KRas MiaPaCa-2 cells after treatment with ULK inhibitors in combination with trametinib (ELISA); format: cell-based, human

molecule="CC/C(Nc1cnn(C(C)C)c1)=C1/C(=O)Nc2ccc(C(=O)NCC3CCC4(CCC4)O3)cc21 (centres unmarked)" reported_endpoint=IC50 result="0.3 to 0.6 µM"
molecule=CC/C(Nc1ccc(N2CCN(C)CC2)cc1)=C1/C(=O)Nc2ccc(C(=O)NCCOC)cc21 reported_endpoint=IC50 result="≤ 0.1 µM"

Prompt: Look up and state reported IC50 for CC/C(Nc1cnn(C2CCN(CC(C)C)CC2)c1)=C1/C(=O)Nc2ccc(C(=O)NCC(C)C)cc21
Response: ≤ 0.1 µM

Prompt: Look up and state reported IC50 for CC/C(Nc1cnn(C(C)C)c1)=C1/C(=O)Nc2ccc(C(=O)NCC(F)F)cc21
Response: ≤ 0.1 µM

###

The entries below come with measured IC50 values attached.
Target: ULK1 kinase (Homo sapiens, UniProt O75385, E37A/K38A)
Construct: (residues 1-283; ID NO: 1)
Sequence (O75385 1-283 E37A/K38A): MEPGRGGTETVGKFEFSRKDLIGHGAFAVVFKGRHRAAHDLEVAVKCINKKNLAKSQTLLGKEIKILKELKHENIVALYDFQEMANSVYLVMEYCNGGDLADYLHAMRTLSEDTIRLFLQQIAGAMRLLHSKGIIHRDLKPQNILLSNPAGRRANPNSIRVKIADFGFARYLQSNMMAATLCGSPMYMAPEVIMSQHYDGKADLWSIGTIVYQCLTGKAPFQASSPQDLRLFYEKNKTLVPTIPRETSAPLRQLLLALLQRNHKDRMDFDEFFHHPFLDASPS
Assay: Biochemical assay for ULK1 (coupled pyruvate kinase/lactate dehydrogenase assay)
Conditions: 1 mM ATP, 0.1 nM ULK1; read-out: ULK1 (inhibition of biochemical activity), IC50

Prompt: Provide the reported IC50 (system: ULK1 kinase (Homo sapiens, UniProt O75385, E37A/K38A)) for CC/C(Nc1cnn([C@@H]2CCOC2)c1)=C1/C(=O)Nc2ccc(C(=O)NCC(F)(F)F)cc21
Response: ≤ 10 nM
